The entries below are paired with their reported melting point.

molecule-smiles	melting point
Cl.O=C(NC1=Nc2cc(OCCCO)ccc2C2=NCCN12)c1cccnc1	243 °C (dec.)
Cc1cc(C(=O)NC2=Nc3ccccc3C3=NCCN23)cc(C)c1[N+](=O)[O-]	277 °C (dec.)
Cc1cccc2c1N=C(NC(=O)c1ccc3[nH]cnc3c1)N1CCN=C21.Cl	> 290 °C
COc1cc(OC)c2c(c1)C1=NCCN1C(NC(=O)c1ccc3[nH]cnc3c1)=N2	210 °C (dec.)
Cc1cc(Br)c2c(c1)C1=NCCN1C(/C=C(\O)c1ccc3[nH]cnc3c1)=N2	> 285 °C

###

The entries below are paired with their reported melting point.

compound	melting point
COc1c(OCC(N)=O)ccc2c1N=C(/C=C(\O)c1cccnc1)N1CCN=C21 [Example 1-23]	297 to 298 °C
CC(C)(C)C(=O)NC1=Nc2ccccc2C2=NCCN12 [Example 2-331]	135 to 136 °C
O=C(NC1=Nc2ccccc2C2=NCCN12)C1CCNCC1 [Example 2-339]	179 to 180 °C
O/C(=C\C1=Nc2ccccc2C2=NCCN12)C(Cl)(Cl)Cl [Example 1-158]	190 °C (dec.)
Cl.NS(=O)(=O)c1ccc(C(=O)NC2=Nc3ccccc3C3=NCCN23)cc1 [Example 2-248]	308 °C (dec.)
